Tested on: HSV2
Protocol notes: Viral qPCR assay, HSV2 in Vero cells
Format: cell-based, Herpes Simplex Virus type 2
Protocol conditions: Human alphaherpesvirus 2, Vero, 72 h, read-out: HSV2 VERO Cell (EC50)
// values below are reported pEC50
Notebook: values listed as pEC50 are -log10 of the concentration (mol/L).

Consider the following illustrative entries.
>>> reported_result("O=C1CC[C@H](CN2Cc3c(C(=O)NCc4ccc(Cl)cc4)nn(CC4(F)COC4)c3C2)N1")
4.63
>>> reported_result("O=C1CC[C@H](CN2Cc3c(C(=O)NCc4ccc(Cl)cc4)nn(CCC4CCOC4)c3C2)N1 (stereo partly shown)")
5.23

Kindly note the recorded pEC50 for CC(C)C(=O)NCCn1nc(C(=O)NCc2ccc(Cl)cc2)c2c1CN(C[C@H]1CCC(=O)N1)C2 , which is 4.00

Kindly note the recorded pEC50 for CN1CC(n2nc(C(=O)NCc3ccc(Cl)cc3)c3c2CC(C[C@H]2CCC(=O)N2)C3)C1 (stereo partly shown) , which is 4.25

# credit: patent US20240059693A1
